Provenance of the data: the nanobody polyreactivity screen of Harvey et al. (2022)

Test description: yeast display, Sf9 membrane polyspecificity reagent, FACS + sequencing; frameworks hold sequencing errors
Quantity name: polyreactivity (PSR sort gate)

Use the examples below as a reference point.
QVQLVESGGGLVQAGGSLRLSCAPSGRIFTEYVMGWYRQAPGKERELVAAAITRGGSTNYADSVKGRFTISRDNAKNTVYLQMISLKPEDTAVYYFNKDDWPFSRQLYTGKYDSWGQGTQVTVSS ... low polyreactivity
QVQLVESGGGLVQAGGSLRLSCAASGSTFYTNAMGWYRQAPGKERELVAVITYRGGSTYYADSVKGRFTISRDNAKNTVYLQMNSLKPEDTAVYYCNARGTVPWYGYDYWGQGTQVTVSS ... high polyreactivity
QVQLVESGGGLVQAVGSLRLSCAASVFIFPYYDMGWYRQAPGKEREFVAAITKSGGRTYYADSVKGRFTISRDNAKNTVYLHMNSLKPEDTAVYYCNADDPDYLVSYRYDYWGLGTQVTVSS ... low polyreactivity
QVHLVESGGGLVQAGGSLRLSCAASGSISVANAMGWYRQAPGKERELVAAITDSGDDTYYADSVKGRFTISRDNAKNTVYLQMNSLKPEDTAVYYCAVEAWSVPPYDYWGQGTQVTVSS ... low polyreactivity

# input for lookup
Note polyreactivity (PSR sort gate) for the sequence shown: QVQLVESGGCLVQAGGSLRLSCAASGRIFLPYAMVWYRQAPGKERELVASITRRGGTTYYADSVKGRFTISRDNAKNTVYLQMNSLKPADSAVYYCAKESWPYGTRGYYHYEYWGQGTQVTVSS
high polyreactivity
